Molecular target: UniProtKB P14416
Sequence (P14416 whole entry): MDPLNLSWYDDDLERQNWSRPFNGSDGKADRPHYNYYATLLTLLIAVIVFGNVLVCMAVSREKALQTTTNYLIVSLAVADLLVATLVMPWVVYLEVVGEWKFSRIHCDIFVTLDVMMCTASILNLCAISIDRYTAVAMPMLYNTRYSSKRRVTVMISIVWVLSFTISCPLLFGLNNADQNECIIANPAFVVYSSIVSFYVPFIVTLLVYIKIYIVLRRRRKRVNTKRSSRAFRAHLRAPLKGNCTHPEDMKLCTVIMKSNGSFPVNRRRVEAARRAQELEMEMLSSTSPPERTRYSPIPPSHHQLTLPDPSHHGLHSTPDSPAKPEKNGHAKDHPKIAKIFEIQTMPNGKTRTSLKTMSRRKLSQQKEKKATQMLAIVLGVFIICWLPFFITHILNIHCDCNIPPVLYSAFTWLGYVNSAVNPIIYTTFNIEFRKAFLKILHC
Test: Antagonist activity at human D2 receptor expressed in HEK293 cells incubated for 60 mins by Eu-cAMP tracer based LANCE ultra cAMP assay
Format: cell-based
Settings: read-out: IC50
pIC50: −log10 of the molar value.
QUANTITY_NAME: pIC50

O=C(c1ccccc1)N(CCCN1CCN(c2cccc(Cl)c2Cl)CC1)C1COC1; 5.73
O=S(=O)(c1ccc(F)cc1)N(CCCN1CCC(c2noc3cc(F)ccc23)CC1)C1COC1; 8.52
CCCN(CCCN1CCN(c2cccc(Cl)c2Cl)CC1)C(=O)c1ccccc1; 6.31

1 = N#Cc1ccc(S(=O)(=O)N(CCCN2CCC(c3noc4cc(F)ccc34)CC2)C2COC2)cc1
2 = O=S(=O)(c1ccc(Cl)cc1)N(CCCN1CCC(c2noc3cc(F)ccc23)CC1)C1COC1
Exercise: Which value of pIC50 is numerically greater: that of 1 or that of 2 ? Pick one and reply with its label.
Solution: 2
(2: 8.70, 1: 8.44)
